The origin of these recorded values is patent US20110052582A1.

The reader will find reported relative binding ratio values listed item by item below.
Target: T1, Soluble CDCP1 extracellular domain (CDCP1-ECD) (SEQ ID NO:30) fused to Streptavidin Binding Protein (SBP) (human, UniProt Q9H5V8 30-663)
T1 construct: also called SBP-CDCP1-ECD
T1 sequence: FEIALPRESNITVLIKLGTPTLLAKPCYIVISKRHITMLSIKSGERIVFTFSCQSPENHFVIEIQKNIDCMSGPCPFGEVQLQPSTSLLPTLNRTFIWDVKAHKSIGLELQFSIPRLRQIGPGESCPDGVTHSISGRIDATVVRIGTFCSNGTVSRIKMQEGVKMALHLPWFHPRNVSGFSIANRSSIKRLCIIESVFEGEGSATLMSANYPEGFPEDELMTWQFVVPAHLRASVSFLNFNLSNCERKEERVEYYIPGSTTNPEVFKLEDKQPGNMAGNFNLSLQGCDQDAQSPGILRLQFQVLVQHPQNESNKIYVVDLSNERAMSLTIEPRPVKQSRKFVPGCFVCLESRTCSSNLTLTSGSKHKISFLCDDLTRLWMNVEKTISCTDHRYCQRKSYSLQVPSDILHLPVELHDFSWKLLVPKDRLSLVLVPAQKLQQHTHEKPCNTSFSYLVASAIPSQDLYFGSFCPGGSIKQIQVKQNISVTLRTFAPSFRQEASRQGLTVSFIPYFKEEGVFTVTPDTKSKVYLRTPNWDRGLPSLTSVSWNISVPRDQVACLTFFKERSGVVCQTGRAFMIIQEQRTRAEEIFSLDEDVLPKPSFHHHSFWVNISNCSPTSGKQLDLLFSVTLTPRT
Experiment: ELISA on captured SBP-CDCP1-ECD, ratio relative to chimeric CUB4 (chHC4)
Just the number, please, no unit attached.

chHC4 / hLC4-f (antibody, V domains shown) VH: EVQLVESGGDLVKPGGSLKLSCAASGFTFNSYGMSWVRQTPDKRLEWVATISSGGSYTYYPDSVKGRFTISRDNAKNTLYLQMSSLKSEDTAMYYCARHPDYDGVWFAYWGQGTLVTVSA VL: DIQMTQSPSSLSASVGDRVTITCSVSSSVFYVHWYQQKPGKAPKLLIYDTSKLASGVPSRFSGSGSGTDYTFTISSLQPEDIATYYCQQWNSNPPTFGGGTKVEIK: 0.24

Shifting focus to the binder that follows.
[in] Would you mind telling me what relative binding ratio value was observed for hHC4-07 / hLC4-c (antibody, V domains shown) VH: EVQLLESGGGLVQPGGSLRLSCAASGFTFNSYAMSWVRQAPGKGLEWVSTISSGGSYTYYPDSVKGRFTISRDNSKNTLYLQMNSLRAEDTAVYYCAKHPDYDGVWFAYWGQGTLVTVSS VL: EIVMTQSPATLSVSPGERATLSCSVSSSVFYVHWYQQKPGQAPRLLIYDTSKLASGIPARFSGSGSGTEFTLTISSLQSEDFAVYYCQQWNSNPPTFGGGTKVEIK ?
[out] 0.04
